Each recorded value in this set is attributed to patent US10821100B2.

Biological target: Recombinant human mPGES-1 (Homo sapiens)
Construct: made in house; host or cells: CHO cells (crude microsomal fractions)
Sequence (O14684 1-152): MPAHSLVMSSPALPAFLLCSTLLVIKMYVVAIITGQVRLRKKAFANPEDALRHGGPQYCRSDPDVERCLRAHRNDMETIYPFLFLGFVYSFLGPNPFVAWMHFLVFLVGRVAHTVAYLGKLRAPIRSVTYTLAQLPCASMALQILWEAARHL
Assay: In-vitro screening of mPGES-1 inhibitors (inhibition of PGE2 formation from PGH2, HTRF detection)
Assay type: biochemical
Details: 1 μM test compound; mPGES-1 enzyme, crude microsomal fractions; read-out: Percentage inhibition at 1 μM
# if value of inhibition at 1 µM reaches 90%, tag Y; if it stays below, tag N

{"Compound Structure": "CC(C)(C)C(=O)NCc1cc(-n2nc(-c3ccc(C#CC4CC4)cc3)[nH]c2=O)c(Cl)cc1Cl", "Tested Target": "Recombinant human mPGES-1 (Homo sapiens)", "Category Label": "Y"}
{"Compound Structure": "COc1cc(-n2nc(-c3cc(CNC(=O)C4CC4)ccc3Cl)[nH]c2=O)ccc1C(=O)Nc1cccc(C(F)(F)F)c1", "Tested Target": "Recombinant human mPGES-1 (Homo sapiens)", "Category Label": "Y"}
{"Compound Structure": "O=C(NCc1ccc(Cl)c(-c2nn(-c3ccc(C(F)(F)F)cc3)c(=O)[nH]2)c1)[C@@H]1CCCO1", "Tested Target": "Recombinant human mPGES-1 (Homo sapiens)", "Category Label": "Y"}
{"Compound Structure": "COc1ccc(-n2nc(-c3c(F)cccc3Cl)[nH]c2=O)cc1C(=O)NCC1CC1", "Tested Target": "Recombinant human mPGES-1 (Homo sapiens)", "Category Label": "N"}
{"Compound Structure": "COc1cc(-c2nn(-c3c(Cl)cccc3Cl)c(=O)[nH]2)ccc1NC(=O)c1ccc(C(F)(F)F)cc1", "Tested Target": "Recombinant human mPGES-1 (Homo sapiens)", "Category Label": "N"}
{"Compound Structure": "O=c1[nH]c(-c2cc(CNS(=O)(=O)C3CC3)ccc2Cl)nn1-c1ccc(C(F)(F)F)cc1", "Tested Target": "Recombinant human mPGES-1 (Homo sapiens)", "Category Label": "Y"}
{"Compound Structure": "O=C(NC1(c2ccccc2C(F)(F)F)CC1)c1ccc(-n2nc(-c3c(F)cccc3Cl)[nH]c2=O)cc1", "Tested Target": "Recombinant human mPGES-1 (Homo sapiens)", "Category Label": "N"}

###

Target: Recombinant human mPGES-1 (Homo sapiens)
Construct: made in house; host or cells: CHO cells (crude microsomal fractions)
Sequence (O14684 1-152): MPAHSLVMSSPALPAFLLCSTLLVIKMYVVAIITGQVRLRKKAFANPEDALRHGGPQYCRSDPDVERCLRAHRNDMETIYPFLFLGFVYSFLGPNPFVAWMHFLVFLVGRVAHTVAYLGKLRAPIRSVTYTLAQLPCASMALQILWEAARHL
Assay: In-vitro screening of mPGES-1 inhibitors (inhibition of PGE2 formation from PGH2, HTRF detection)
Format: biochemical
Details: mPGES-1 enzyme; class symbols
pIC50: −log10 of the molar value.
Experimental Endpoint: pIC50

{"Compound Structure": "O=C(NCc1ccc(Cl)c(-n2nc(-c3ccc(C#Cc4cccc(C(F)(F)F)c4)cc3F)[nH]c2=O)c1)C1CC1", "Tested Target": "Recombinant human mPGES-1 (Homo sapiens)", "Observed Result": "> 7.30"}
{"Compound Structure": "CC(C)(C)C(=O)NCc1ccc(Cl)c(-c2nn(-c3ccc(Cl)c(C(F)(F)F)c3)c(=O)[nH]2)c1", "Tested Target": "Recombinant human mPGES-1 (Homo sapiens)", "Observed Result": "> 7.30"}
{"Compound Structure": "CC(C)(C)C(=O)NCc1ccc(Cl)c(-n2nc(-c3ccc(C(F)(F)F)cc3)[nH]c2=O)c1F", "Tested Target": "Recombinant human mPGES-1 (Homo sapiens)", "Observed Result": "> 7.30"}
{"Compound Structure": "O=c1[nH]c(-c2c(F)cccc2Cl)nn1-c1ccc(C#Cc2ccc(C(F)(F)F)cn2)cc1", "Tested Target": "Recombinant human mPGES-1 (Homo sapiens)", "Observed Result": "< 7.00"}
{"Compound Structure": "CC(C)C(=O)NCc1ccc(Cl)c(-n2nc(-c3ccc(C#CC(C)(C)C)c(F)c3)[nH]c2=O)c1", "Tested Target": "Recombinant human mPGES-1 (Homo sapiens)", "Observed Result": "> 7.30"}
{"Compound Structure": "O=C(Nc1ccc(F)c(C(F)(F)F)c1)c1ccc(-n2nc(-c3c(F)cccc3Cl)[nH]c2=O)cc1", "Tested Target": "Recombinant human mPGES-1 (Homo sapiens)", "Observed Result": "7.00 to 7.30"}
{"Compound Structure": "COc1cc(-n2nc(-c3c(Cl)cccc3Cl)[nH]c2=O)ccc1-c1nc(-c2ccc(Cl)cc2)no1", "Tested Target": "Recombinant human mPGES-1 (Homo sapiens)", "Observed Result": "> 7.30"}
{"Compound Structure": "CC(C)(C)C(=O)NCc1cc(-c2nn(-c3ccc(C(F)(F)F)cc3)c(=O)[nH]2)c(Cl)cc1F", "Tested Target": "Recombinant human mPGES-1 (Homo sapiens)", "Observed Result": "> 7.30"}
